Target: Factor X (FX), P00742
Sequence (P00742 whole entry, looked up): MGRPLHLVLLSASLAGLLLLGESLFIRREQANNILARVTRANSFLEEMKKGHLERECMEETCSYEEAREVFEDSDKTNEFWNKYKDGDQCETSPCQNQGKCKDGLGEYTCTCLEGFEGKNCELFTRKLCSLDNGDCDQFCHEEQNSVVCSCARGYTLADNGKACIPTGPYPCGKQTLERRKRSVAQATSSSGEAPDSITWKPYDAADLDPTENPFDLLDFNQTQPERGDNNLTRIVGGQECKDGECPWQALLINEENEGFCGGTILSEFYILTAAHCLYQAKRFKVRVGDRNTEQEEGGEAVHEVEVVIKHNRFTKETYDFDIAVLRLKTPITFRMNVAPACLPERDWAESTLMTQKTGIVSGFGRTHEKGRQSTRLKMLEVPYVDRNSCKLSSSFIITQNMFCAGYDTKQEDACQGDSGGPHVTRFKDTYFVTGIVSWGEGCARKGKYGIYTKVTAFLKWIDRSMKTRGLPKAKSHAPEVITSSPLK
recorded.metric: KM of FX activation by FIXa in the Xase complex (FVIIIa, PC/PS vesicles, Ca2+)

Query: // lookup KM of FX activation by FIXa in the Xase complex (FVIIIa, PC/PS vesicles, Ca2+) for FIXa variant D203N/F205T/E410N (mature FIX numbering) (protein) chain 1: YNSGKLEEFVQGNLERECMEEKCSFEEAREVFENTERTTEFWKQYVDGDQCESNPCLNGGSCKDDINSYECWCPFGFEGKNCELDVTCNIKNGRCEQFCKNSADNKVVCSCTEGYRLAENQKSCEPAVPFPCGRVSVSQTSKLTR chain 2: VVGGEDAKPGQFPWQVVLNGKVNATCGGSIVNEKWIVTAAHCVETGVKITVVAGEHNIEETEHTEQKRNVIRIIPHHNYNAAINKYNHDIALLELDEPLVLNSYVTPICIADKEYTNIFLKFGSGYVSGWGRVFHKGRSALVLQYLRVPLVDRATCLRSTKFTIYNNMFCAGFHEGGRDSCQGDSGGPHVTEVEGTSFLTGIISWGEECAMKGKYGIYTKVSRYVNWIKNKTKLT
Reply: 0.0455 µM
